- measured target: human GLP-1 receptor (human, UniProt P43220 24-463)
- assay details: cell-based or functional assay
Bridge positions count the residues as written; N and C are the ends. Square brackets hold non-standard residues; d marks the D form. Ends that are not written are not given here. * marks the point of attachment. Acetyl(2-(4-imidazolyl)) = O=C(Cc1c[nH]cn1)*; Aib = CC(C)(N)C(=O)O
Please respond with Y when measured In vitro activity compared with native peptide (%) vs GLP-1 (cAMP EC50) is strictly beneath 20%, and with N in all other cases.

- Y[Aib]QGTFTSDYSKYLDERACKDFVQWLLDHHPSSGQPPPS (bridge 16-20) [triple agonist of SEQ ID NO: 71]: N
- H[Aib]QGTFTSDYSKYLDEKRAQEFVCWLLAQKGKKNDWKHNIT [triple agonist of SEQ ID NO: 28]: Y
- {Acetyl(2-(4-imidazolyl))}-[Aib]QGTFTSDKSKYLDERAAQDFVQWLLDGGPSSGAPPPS [triple agonist of SEQ ID NO: 62]: Y
- [Acetyl(2-(4-imidazolyl))]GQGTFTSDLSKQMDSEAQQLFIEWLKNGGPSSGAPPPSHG [triple agonist of SEQ ID NO: 16]: Y
- H[Aib]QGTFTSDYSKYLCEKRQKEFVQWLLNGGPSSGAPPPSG (bridge 16-20) [triple agonist of SEQ ID NO: 36]: N
- Y[Aib]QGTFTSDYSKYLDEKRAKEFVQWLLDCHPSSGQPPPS (bridge 16-20) [triple agonist of SEQ ID NO: 97]: Y
- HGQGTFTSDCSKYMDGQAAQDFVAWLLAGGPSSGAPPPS [triple agonist of SEQ ID NO: 45]: Y
- [Acetyl(2-(4-imidazolyl))][Aib]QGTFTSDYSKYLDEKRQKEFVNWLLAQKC (bridge 16-20) [triple agonist of SEQ ID NO: 93]: Y
- Y[Aib]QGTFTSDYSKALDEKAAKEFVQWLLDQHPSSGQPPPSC (bridge 16-20) [triple agonist of SEQ ID NO: 100]: N
- Y[Aib]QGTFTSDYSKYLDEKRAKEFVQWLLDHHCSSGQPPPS (not fully specified (bridges)) [triple agonist of SEQ ID NO: 43]: Y
- [Acetyl(2-(4-imidazolyl))][Aib]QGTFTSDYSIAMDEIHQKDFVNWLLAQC (bridge 16-20) [triple agonist of SEQ ID NO: 85]: Y
- H[Aib]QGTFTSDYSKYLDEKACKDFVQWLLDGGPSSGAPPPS (bridge 16-20) [triple agonist of SEQ ID NO: 32]: N
- H[Aib]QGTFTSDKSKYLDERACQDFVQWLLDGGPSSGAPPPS [triple agonist of SEQ ID NO: 40]: N
- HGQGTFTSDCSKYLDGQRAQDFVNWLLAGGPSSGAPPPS [triple agonist of SEQ ID NO: 48]: Y
- [Acetyl(2-(4-imidazolyl))][Aib]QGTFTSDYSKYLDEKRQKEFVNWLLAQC (bridge 16-20) [triple agonist of SEQ ID NO: 86]: N
- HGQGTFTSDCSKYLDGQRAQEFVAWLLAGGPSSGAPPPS [triple agonist of SEQ ID NO: 47]: Y
- H[Aib]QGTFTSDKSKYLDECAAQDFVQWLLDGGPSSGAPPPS [triple agonist of SEQ ID NO: 41]: N
- H[Aib]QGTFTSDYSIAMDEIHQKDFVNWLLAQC (bridge 16-20) [triple agonist of SEQ ID NO: 55]: N
- H[Aib]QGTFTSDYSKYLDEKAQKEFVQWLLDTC (bridge 16-20) [triple agonist of SEQ ID NO: 30]: N
- [Acetyl(2-(4-imidazolyl))]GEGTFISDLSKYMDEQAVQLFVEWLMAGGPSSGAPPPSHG [triple agonist of SEQ ID NO: 12]: Y
- [Acetyl(2-(4-imidazolyl))][Aib]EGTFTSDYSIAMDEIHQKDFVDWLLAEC (bridge 16-20) [triple agonist of SEQ ID NO: 84]: Y
- H[Aib]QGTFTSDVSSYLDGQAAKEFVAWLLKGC [triple agonist of SEQ ID NO: 6]: Y

Origin of measurements: patent US20240293512A1
